Biological target: T1, Cynomolgous monkey PSMA, full length, on HEK293F cells (Macaca fascicularis (cynomolgus monkey))
T1 construct: stably transfected HEK293F cells; also called cyno PSMA; Cyno-PSMA HEK
T1 chain: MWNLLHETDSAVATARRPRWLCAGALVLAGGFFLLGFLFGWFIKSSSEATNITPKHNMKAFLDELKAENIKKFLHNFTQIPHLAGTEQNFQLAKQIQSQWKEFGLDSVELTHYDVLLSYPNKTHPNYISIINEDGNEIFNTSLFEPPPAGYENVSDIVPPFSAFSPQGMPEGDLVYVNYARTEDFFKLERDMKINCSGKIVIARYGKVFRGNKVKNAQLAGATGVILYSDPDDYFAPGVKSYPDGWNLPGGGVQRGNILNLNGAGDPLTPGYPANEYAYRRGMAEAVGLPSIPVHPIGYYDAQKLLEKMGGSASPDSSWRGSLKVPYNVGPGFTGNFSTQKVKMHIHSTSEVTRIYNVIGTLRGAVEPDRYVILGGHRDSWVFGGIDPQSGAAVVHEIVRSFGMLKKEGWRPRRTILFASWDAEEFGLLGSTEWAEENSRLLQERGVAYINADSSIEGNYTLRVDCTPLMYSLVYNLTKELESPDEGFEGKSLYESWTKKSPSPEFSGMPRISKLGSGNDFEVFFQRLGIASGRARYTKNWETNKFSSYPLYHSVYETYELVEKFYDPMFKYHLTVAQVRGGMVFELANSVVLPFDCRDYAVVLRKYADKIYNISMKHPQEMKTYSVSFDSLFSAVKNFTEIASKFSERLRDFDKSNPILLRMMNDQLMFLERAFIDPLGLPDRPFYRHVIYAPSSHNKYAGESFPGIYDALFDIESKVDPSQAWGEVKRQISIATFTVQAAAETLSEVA
Assay: flow cytometry, Fab supernatant, cyno PSMA HEK cells
This section presents binders with their documented Geo-MFI values.
Provide a numeric answer; units are not to be included.

### Prompt Using the record for PSMB55 (Fab, V domains shown, mammalian-expressed Fab supernatant (huG1 Fab and human kappa vectors); also called PSMM56) VH: EVQLVQSGAEVKKPGESLKISCKGSGYSFTSYWIGWVRQMPGKGLEWMGIIYPGDSDTRYSPSFQGQVTISADKSISTAYLQWSSLKASDTAMYYCARGLPIWYLDYWGQGTLVTVSS VL: EIVLTQSPATLSLSPGERATLSCRASQSVASDLAWYQQKPGQAPRLLIYFASNRATGIPARFSGSGSGTDFTLTISSLEPEDFAVYYCQQSITWPFTFGQGTKVEIK , report its Geo-MFI.
### Response 226

### Prompt I would be grateful if you could share the reported Geo-MFI for PSMB109 (Fab, V domains shown, mammalian-expressed Fab supernatant (huG1 Fab and human kappa vectors); also called PSMM110) VH: QVQLVQSGAEVKKPGSSVKVSCKASGGTFSSYAISWVRQAPGQGLEWMGWISPYNGNANYAQKFQGRVTITADESTSTAYMELSSLRSEDTAVYYCARVNSAALVWERLDYWGQGTLVTVSS VL: DIQMTQSPSSLSASVGDRVTITCRASQSIDRWLNWYQQKPGKAPKLLIYAASSLQSGVPSRFSGSGSGTDFTLTISSLQPEDFATYYCQQSPRYPLTFGQGTKVEIK .
### Response 321

### Prompt What value of measured Geo-MFI is listed for PSMB49 (Fab, V domains shown, mammalian-expressed Fab supernatant (huG1 Fab and human kappa vectors); also called PSMM50) VH: QVQLVQSGAEVKKPGSSVKVSCKASGGTFSSYAISWVRQAPGQGLEWMGGIIPIFGTANYAQKFQGRVTITADESTSTAYMELSSLRSEDTAVYYCARASRVWHASYGYLDYWGQGTLVTVSS VL: EIVLTQSPATLSLSPGERATLSCRASQSVSKWLAWYQQKPGQAPRLLIYDASNRATGIPARFSGSGSGTDFTLTISSLEPEDFAVYYCQQRFTAPWTFGQGTKVEIK ?
### Response 51.6

### Prompt Please report the recorded Geo-MFI for PSMB51 (Fab, V domains shown, mammalian-expressed Fab supernatant (huG1 Fab and human kappa vectors); also called PSMM52) VH: QVQLVQSGAEVKKPGSSVKVSCKASGGTFSSYAISWVRQAPGQGLEWMGWIIPYNGNANYAQKFQGRVTITADESTSTAYMELSSLRSEDTAVYYCARVNSAALVWERLDYWGQGTLVTVSS VL: DIQMTQSPSSLSASVGDRVTITCRASQSIDRWLNWYQQKPGKAPKLLIYAASSLQSGVPSRFSGSGSGTDFTLTISSLQPEDFATYYCQQSPRYPLTFGQGTKVEIK .
### Response 285

Sourced from patent US20230322924A1
